# Assay Explanation: Pharmacokinetic studies in rats
# Format: in vivo
# Conditions: blood, iv; rat, 10 mg/kg I.V.; 60 minute
Measured Attribute: concentration at 1 h (ng/mL)
Respond with the bare value in ng/mL.

Give concentration at 1 h for the following compound: O=C(O)c1c(Cl)c(Cl)c(Cl)c(Cl)c1-c1c2cc(I)c(=O)c(I)c-2oc2c(I)c(O)c(I)cc12 (single isomer, unassigned) [Compound 1]
720

* * *

# Measurement Target: human FcεRI transfected rat basophil leukemia cell line, SX38 (Homo sapiens, UniProt P01854+P12319)
# Construct: biotinylated recombinant IgE (mouse VH, human Cε, J558L)
# Sequence (P12319 26-257): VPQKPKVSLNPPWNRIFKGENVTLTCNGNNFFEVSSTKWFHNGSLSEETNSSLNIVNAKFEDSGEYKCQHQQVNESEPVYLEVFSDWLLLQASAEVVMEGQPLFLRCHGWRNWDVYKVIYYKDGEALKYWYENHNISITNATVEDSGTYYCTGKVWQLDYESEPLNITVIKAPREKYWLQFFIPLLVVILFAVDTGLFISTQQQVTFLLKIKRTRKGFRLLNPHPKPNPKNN
# Sequence (P01854 whole entry): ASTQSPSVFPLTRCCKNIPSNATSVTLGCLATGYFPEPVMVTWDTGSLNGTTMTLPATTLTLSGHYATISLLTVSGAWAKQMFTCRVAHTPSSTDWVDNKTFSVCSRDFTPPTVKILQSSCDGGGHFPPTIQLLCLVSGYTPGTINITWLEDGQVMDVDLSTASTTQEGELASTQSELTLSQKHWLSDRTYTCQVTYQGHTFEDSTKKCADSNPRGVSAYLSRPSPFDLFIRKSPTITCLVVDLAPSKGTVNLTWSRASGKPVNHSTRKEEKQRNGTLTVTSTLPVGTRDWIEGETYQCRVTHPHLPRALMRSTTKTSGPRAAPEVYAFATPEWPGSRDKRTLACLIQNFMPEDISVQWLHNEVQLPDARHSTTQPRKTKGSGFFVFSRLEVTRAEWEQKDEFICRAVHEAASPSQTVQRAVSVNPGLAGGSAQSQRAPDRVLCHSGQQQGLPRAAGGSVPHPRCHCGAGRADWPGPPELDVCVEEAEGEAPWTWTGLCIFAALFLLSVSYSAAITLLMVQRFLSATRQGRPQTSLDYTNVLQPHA
# Sequence (Q01362 whole entry partner): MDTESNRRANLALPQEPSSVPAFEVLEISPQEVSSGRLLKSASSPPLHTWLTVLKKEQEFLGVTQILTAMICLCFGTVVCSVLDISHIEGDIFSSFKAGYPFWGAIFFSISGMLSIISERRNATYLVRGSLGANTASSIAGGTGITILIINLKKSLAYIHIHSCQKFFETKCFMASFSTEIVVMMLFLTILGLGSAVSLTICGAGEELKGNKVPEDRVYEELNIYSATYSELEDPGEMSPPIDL
# Sequence (P30273 19-86 partner): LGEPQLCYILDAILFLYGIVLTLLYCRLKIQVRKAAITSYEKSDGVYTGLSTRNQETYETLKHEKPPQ
# Assay Explanation: Cell-based IgE-FcεRI binding assay
# Conditions: read-out: IC50, inhibition of IgE-FcεRI binding (converted)
Each entry below carries its reported IC50.

Reference set, count: 3
                                   compound  endpoint_result
0  O=C(O)c1c(Cl)c(Cl)c(Cl)c(Cl)c1-c1c2cc(I)c(=O)c(I)c-2oc2c(I)c(O)c(I)cc12 (single isomer, unassigned) [Compound 1]            12 µM
1  CCOC(=O)c1ccccc1-c1c2cc(Br)c(=O)c(Br)c-2oc2c(Br)c(O)c(Br)cc12 [Compound 4]          5.33 µM
2  COC(=O)c1ccccc1-c1c2cc(Br)c(=O)c(Br)c-2oc2c(Br)c(O)c(Br)cc12 [Compound 7]          6.65 µM

Read the next record carefully.
Give IC50 for the following compound: O=C(O)c1c(Cl)c(Cl)c(Cl)c(Cl)c1-c1c2cc(I)c(=O)c(I)c-2oc2c(I)c(O)c(I)cc12 (single isomer, unassigned) [Compound 2]
5.65 µM

* * *

# Assay Explanation: Pharmacokinetic studies in rats
# Type: in vivo
# Conditions: blood, iv; rat, 10 mg/kg I.V.; 0 minute
# Method: The pharmacokinetic (PK) profile of the compounds following systemic I.V. injection was measured. Compound 1 was formulated in PBS and given to a rat at 10 mg/kg. Blood was drawn from the rat at different time points after injection. The concentrations of compound 1 in the blood were measured by HPLC after separation from serum.
Measured Attribute: concentration at 0 h (µg/mL)
Respond with the bare value in µg/mL.

Give concentration at 0 h for the following compound: O=C(O)c1c(Cl)c(Cl)c(Cl)c(Cl)c1-c1c2cc(I)c(=O)c(I)c-2oc2c(I)c(O)c(I)cc12 (single isomer, unassigned) [Compound 1]
83

* * *

# Test system: human IgE / soluble FcεRI α (Fc-FcεRIα fusion protein)
# Assay Explanation: Protein-based IgE-FcεRI binding assay (ELISA)
# Conditions: 10 μg/ml
Measured Attribute: % Inhibition of IgE/FcεRI binding (%)
Respond with the bare value in %.

Reference set, count: 5
>>> df
                                   molecule  endpoint_result
0  O=c1c(Br)cc2c(-c3ccccc3S(=O)(=O)O)c3cc(Br)c(O)c(O)c3oc-2c1O               87
1  O=C(O)c1c(Cl)c(Cl)c(Cl)c(Cl)c1-c1c2cc(I)c(=O)c(I)c-2oc2c(I)c(O)c(I)cc12 (single isomer, unassigned) [Compound 1]               98
2  O=C(O)c1c(Cl)ccc(Cl)c1-c1c2cc(I)c(=O)c(I)c-2oc2c(I)c(O)c(I)cc12               99
3  CCOC(=O)c1c(Cl)c(Cl)c(Cl)c(Cl)c1-c1c2cc(Br)c(=O)c(Br)c-2oc2c(Br)c(O)c(Br)cc12               90
4  CCOC(=O)c1ccccc1-c1c2cc(Br)c(=O)c(Br)c-2oc2c(Br)c(O)c(Br)cc12               98

Give % Inhibition of IgE/FcεRI binding for the following molecule: COC(=O)c1ccccc1-c1c2cc(Br)c(=O)c(Br)c-2oc2c(Br)c(O)c(Br)cc12
87

Give % Inhibition of IgE/FcεRI binding for the following molecule: O=C(O)c1c(Cl)c(Cl)c(Cl)c(Cl)c1-c1c2ccc(=O)c(O)c-2oc2c(O)c(O)ccc12
83

Give % Inhibition of IgE/FcεRI binding for the following molecule: O=C(O)c1c(Cl)c(Cl)c(Cl)c(Cl)c1-c1c2cc(I)c(=O)c(I)c-2oc2c(I)c(O)c(I)cc12 (single isomer, unassigned) [Compound 2]
100
